Values from ChEMBL document CHEMBL1146485

assay: Elimination half life in po dosed human; type: ADME, organism-based; details: in vivo, read-out: beta t1/2 (converted)
endpoint: half-life

INSERT INTO assay_data (compound, endpoint, endpoint_value) VALUES
  ('CCCc1cc(=O)oc2c3c(c4c(c12)OC(C)(C)C=C4)O[C@H](C)[C@@H](C)[C@@H]3O [CALANOLIDE A]', 'half-life', '15 h');
